target: GPR73 (prokineticin 1 receptor) (Homo sapiens); construct: expressed in transfected cells; host or cells: HEK 293; assay: PK1 functional assay: Ca2+ mobilization on the FLIPR; assay type: cell-based; conditions: @10 μM compound; read-out: Ca^2+ Mobilization % Inh @10 μM
Sequence (Q8TCW9 whole entry, species assumed): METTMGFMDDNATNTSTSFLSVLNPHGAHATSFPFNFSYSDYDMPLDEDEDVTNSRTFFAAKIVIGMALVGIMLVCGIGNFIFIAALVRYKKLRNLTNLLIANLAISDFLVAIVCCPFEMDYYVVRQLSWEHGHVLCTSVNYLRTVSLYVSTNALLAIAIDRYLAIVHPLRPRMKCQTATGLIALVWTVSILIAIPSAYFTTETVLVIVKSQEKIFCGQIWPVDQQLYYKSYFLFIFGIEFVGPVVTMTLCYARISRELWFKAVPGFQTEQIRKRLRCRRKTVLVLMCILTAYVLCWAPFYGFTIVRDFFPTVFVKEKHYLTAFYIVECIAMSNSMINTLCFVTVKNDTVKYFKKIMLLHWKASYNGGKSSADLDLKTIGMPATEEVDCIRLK
MEASURE_NAME: inhibition at 10 µM

COc1ccc(Cn2c(=O)nc(NCc3cnc(C)cc3C)n(Cc3ccccc3OC)c2=O)cc1 :: 99%
COc1ccc(Cn2c(NCc3cccnc3)nc(=O)n(Cc3ccc(OC)cc3)c2=O)cc1 :: 83%
COc1ccccc1Cn1c(=O)nc(NCc2cnc(C)cc2C)n(Cc2ccc(OC(F)F)cc2)c1=O :: 39%

Attention now shifts to the item below.
Given item `COc1ccc(Cn2c(=O)nc(NCc3cnc(C)cc3C)n(Cc3ccc(OC(F)F)cc3)c2=O)cc1` , the value recorded as its inhibition at 10 µM is 92%

###

target: GPR73 (prokineticin 1 receptor) (Homo sapiens); construct: expressed in transfected cells; host or cells: HEK 293; experiment: PK1 functional assay: Ca2+ mobilization on the FLIPR; format: cell-based; conditions: HEK 293 GPR73 expressing cells; PK1 ligand preparation at its EC50; read-out: Ca^2+ Mobilization IC50
MEASURE_NAME: IC50 (nM)
Give just the numeric value; nM need not be written.

Here COc1ccc(Cn2c(NCc3cccnc3)nc(=O)n(Cc3ccc(OC)cc3)c2=O)cc1 [Cpd 40] was tested on GPR73 (prokineticin 1 receptor) (Homo sapiens), and its IC50 came to 557
